System: U-2932
Experiment: growth inhibition by drug alone (1 - RLU/untreated control) (fraction); higher = stronger inhibition
Details: 10 nM; time (day): 5; 177Lu-lilotomab satetraxetan 0 ug/ml
// label = rule met if growth inhibition by drug alone is not less than -0.02, otherwise rule not met

Please review the entries below; each comes with its answer.
hey, is growth inhibition by drug alone for this one >= -0.02? Cn1cc(-c2ccc3nnc(Sc4ccc5ncccc5c4)n3n2)cn1
rule not met

Lookup CO[C@H]1C[C@@H]2CC[C@@H](C)[C@@](O)(O2)C(=O)C(=O)N2CCCC[C@H]2C(=O)O[C@H]([C@H](C)C[C@@H]2CC[C@@H](OC(=O)C(C)(CO)CO)[C@H](OC)C2)CC(=O)[C@H](C)/C=C(\C)[C@@H](O)[C@@H](OC)C(=O)[C@H](C)C[C@H](C)/C=C/C=C/C=C/1C [Temsirolimus (Torisel)]
rule met

What about CC(C)CC(=O)Nc1n[nH]c2c1CN(C(=O)C1CCN(C)CC1)C2(C)C ?
rule met

Same thing, different compound: CC1=C(/C=C/C(C)=C/C=C/C(C)=C/C(=O)Nc2ccc(O)cc2)C(C)(C)CCC1 [Fenretinide]
rule met

Continuing:
Is reported growth inhibition by drug alone greater than or equal to -0.02 here: COc1nc(C)cnc1NS(=O)(=O)c1cccnc1-c1ccc(-c2nnco2)cc1 [Zibotentan (ZD4054)]
rule not met

Would you mind doing O=C(/C=C/c1cccnc1)NCCCCC1CCN(C(=O)c2ccccc2)CC1 as well?
rule met

Follow-up item: CN(N=O)C(=O)N[C@@H](C=O)[C@@H](O)[C@H](O)[C@H](O)CO [Streptozotocin (Zanosar)]
rule not met

// same read-out, input: C=CC[C@@H]1/C=C(\C)C[C@H](C)C[C@H](OC)[C@H]2O[C@@](O)(C(=O)C(=O)N3CCCC[C@H]3C(=O)O[C@H](/C(C)=C/[C@@H]3CC[C@@H](O)[C@H](OC)C3)[C@H](C)[C@@H](O)CC1=O)[C@H](C)C[C@@H]2OC [FK-506 (Tacrolimus)]
rule met

How about this compound: C=CC(=O)Nc1cccc(Oc2nc(Nc3ccc(N4CCN(C)CC4)cc3OC)ncc2Cl)c1
rule not met

Same for C[C@]12CCC(=O)C=C1CC[C@@H]1[C@@H]2[C@@H](O)C[C@@]2(C)[C@H]1CC[C@]2(O)C(=O)CO [Hydrocortisone (Cortisol)]
rule met

Another compound to look at: Cc1ccc(NC(=O)c2cccc(C(C)(C)C#N)c2)cc1Nc1ccc2ncn(C)c(=O)c2c1
rule met

Same lookup for Cc1ccc(S(=O)(=O)C=CC#N)cc1 , please.
rule not met

Query Cc1nn(-c2ccccc2)c(C)c1C=NN1CCN(Cc2ccccc2)CC1 next
rule met

Subsequent entry: CC(C)Oc1cc(Nc2nc(N[C@@H](C)c3ccc(F)cn3)ncc2Cl)n[nH]1
rule not met

What would you report for CCc1cc(-c2n[nH]c(C)c2-c2ccc3c(c2)OCCO3)c(O)cc1O ?
rule not met

###

Test system: RIVA
Assay: growth inhibition by drug alone (1 - RLU/untreated control) (fraction); higher = stronger inhibition
Conditions: 10 nM; time (day): 3; 177Lu-lilotomab satetraxetan 0 ug/ml
Measured growth inhibition by drug alone, listed per entry.
The answer should be a number; do not append a unit.

Bench note: what growth inhibition by drug alone did O=C(Nc1ccc(OC(F)(F)F)cc1)c1sccc1NCc1ccnc2ccccc12 show?
-0.0142

Next compound up: N#Cc1c(O)c2c(-c3ccc(-c4ccccc4O)cc3)csc2[nH]c1=O
0.017

COc1c(C)c2c(c(O)c1C/C=C(\C)CCC(=O)O)C(=O)OC2 [Mycophenolic (Mycophenolate)] ?
0.102

Then what about the compound O=C(O)CCc1ccc(NCc2cccc(Oc3ccccc3)c2)cc1 ?
-0.138

---
Given CC(c1cc2ccccc2s1)N(O)C(N)=O (configuration not stated) , state its recorded growth inhibition by drug alone.
-0.0289

Again, but for C[C@@H]1CN(CC(=O)Nc2ccc3c(c2)Cc2cccc(-c4cc(=O)cc(N5CCOCC5)o4)c2S3)C[C@H](C)O1
-0.0136

Entry to check: Cn1nnc2c(C(N)=O)ncn2c1=O [Temozolomide]
0.0977

Also need CC[C@H]1OC(=O)[C@H](C)[C@@H](O[C@H]2C[C@@](C)(OC)[C@@H](O)[C@H](C)O2)[C@H](C)[C@@H](O[C@@H]2O[C@H](C)C[C@H](N(C)C)[C@H]2O)[C@](C)(O)C[C@@H](C)CN(C)[C@H](C)[C@@H](O)[C@]1(C)O [Azithromycin (Zithromax)] , thanks.
0.16

Similarly, CNC(=O)c1ccccc1Sc1ccc2c(/C=C/c3ccccn3)n[nH]c2c1 ?
-0.0928

Please do the same for Cc1cnc(NC(=O)Nc2cc(Br)c(C)cc2OC[C@@H]2CNCCO2)cn1 as well.
-0.0313

Cool, now Cc1ccc([C@@H]2O[C@H](CO)[C@@H](O)[C@H](O)[C@H]2O)cc1Cc1ccc(-c2ccc(F)cc2)s1
-0.0859

Another: N#Cc1ccc(NC(=O)Nc2ccccc2Br)c2n[nH]nc12
-0.0525

Also need COc1cc2c(NC3CCN(C)CC3)nc(N3CCCN(C)CC3)nc2cc1OCCCN(C)C , thanks.
-0.117

And for O=c1oc2c(O)c(O)cc3c(=O)oc4c(O)c(O)cc1c4c23 ?
-0.12

And the next one, Cc1csc(-c2nnc(Nc3ccc(Oc4ncccc4-c4ccnc(N)n4)cc3)c3ccccc23)c1 ?
0.0279

Likewise for CC1(C)CCC(c2ccc(Cl)cc2)=C(CN2CCN(c3ccc(C(=O)NS(=O)(=O)c4ccc(N[C@H](CCN5CCOCC5)CSc5ccccc5)c(S(=O)(=O)C(F)(F)F)c4)cc3)CC2)C1 ?
0.116

Try CC(C)OC(=O)C1=CN(C(=O)c2ccc(F)c(F)c2)CC(C)(C)c2c1[nH]c1ccccc21 next.
0.0268

###

System: RIVA
Assay: growth inhibition by drug alone (1 - RLU/untreated control) (fraction); higher = stronger inhibition
Details: 100 nM; time (day): 3; 177Lu-lilotomab satetraxetan 0 ug/ml
Quick reference: growth inhibition by drug alone of the listed items.
Please reply with the value in numeric form only.

Solved cases (3 shown):
Form field: reported growth inhibition by drug alone of C[C@]12CCC(=O)C=C1CC[C@@H]1[C@@H]2[C@@H](O)C[C@@]2(C)[C@H]1CC[C@]2(O)C(=O)CO [Hydrocortisone (Cortisol)]
-0.515

Record: COc1nc(-c2ccc3c(c2)OCO3)n(-c2ccc(NC(=O)CSc3ccccc3)cc2)n1 [SecinH3]
-0.311

Entry to check: Cc1cn(-c2cc(NC(=O)c3ccc(C)c(Nc4nccc(-c5cccnc5)n4)c3)cc(C(F)(F)F)c2)cn1 [Nilotinib (AMN-107)]
-0.122

***
Name the reported growth inhibition by drug alone value associated with the compound CC(=O)O[C@H]1C(=O)[C@@]2(C)[C@H]([C@H](OC(=O)c3ccccc3)[C@]3(O)C[C@H](OC(=O)[C@H](O)[C@@H](NC(=O)c4ccccc4)c4ccccc4)C(C)=C1C3(C)C)[C@]1(OC(C)=O)CO[C@@H]1C[C@@H]2O [Paclitaxel (Taxol)]
0.949

And then CC[C@@H]1/C=C(\C)C[C@H](C)C[C@H](OC)[C@H]2O[C@@](O)(C(=O)C(=O)N3CCCC[C@H]3C(=O)O[C@H](/C(C)=C/[C@@H]3CC[C@H](Cl)[C@H](OC)C3)[C@H](C)[C@@H](O)CC1=O)[C@H](C)C[C@@H]2OC [Pimecrolimus] , what is it?
0.691

###

Test system: U-2932
Assay: growth inhibition by drug plus 177Lu-lilotomab satetraxetan (1 - RLU/untreated control) (fraction); higher = stronger inhibition
Details: 10 nM; time (day): 3; 177Lu-lilotomab satetraxetan 1 ug/ml
Structures can show the parent of a compound that is named as a salt.
reported metric: growth inhibition by drug plus 177Lu-lilotomab satetraxetan
// response body must contain only the number

Example entries and their recorded answers appear below.
Looking for the measured growth inhibition by drug plus 177Lu-lilotomab satetraxetan of COc1cc(OC2CCN(C)CC2)ccc1Nc1ncc2c(n1)n(C1CCCC1)c(=O)n2C , can you help?
-0.087

What about this compound? CC[C@H](Nc1ncnc2[nH]cnc12)c1nc2cccc(F)c2c(=O)n1-c1ccccc1
-0.0906

# iterate: N#CCNC(=O)c1ccc(-c2ccnc(Nc3ccc(N4CCOCC4)cc3)n2)cc1
-0.0778

Record: O=C(Nc1cccc(Cl)c1)Nc1ncc(CCNc2ncnc3ccsc23)s1
0.0766

# iterate: COc1ccc(-c2ccc3c(N4CCOC[C@@H]4C)nc(N4CCOC[C@@H]4C)nc3n2)cc1CO
0.124

Here is the next compound: CC(C)C[C@H](NC(=O)CNC(=O)c1cc(Cl)ccc1Cl)B1OC(=O)C(CC(=O)O)(CC(=O)O)O1
0.0116

Next compound: CN(CCOc1ccc(CC2SC(=O)NC2=O)cc1)c1ccccn1 (stereo not given)
-0.0122

And the next one, O=C1CN2Cc3c(ccc(Cl)c3Cl)N=C2N1 [Anagrelide hydrochloride] ?
0.101

---
Which measured growth inhibition by drug plus 177Lu-lilotomab satetraxetan value corresponds to O=c1cc(N2CCOCC2)oc2c(-c3cccc4c3sc3ccccc34)cccc12 ?
0.0719
